target: A2A-adenosine receptor human recombinant (Homo sapiens); construct: expressed in transfected cells; assay: Radioligand binding assay 1, human recombinant A2A adenosine receptor; settings: human recombinant, [3H]MSX-2; read-out: A2A-adenosine receptor human recombinant [3H] MSX-2 Ki
Sequence (P29274 whole entry): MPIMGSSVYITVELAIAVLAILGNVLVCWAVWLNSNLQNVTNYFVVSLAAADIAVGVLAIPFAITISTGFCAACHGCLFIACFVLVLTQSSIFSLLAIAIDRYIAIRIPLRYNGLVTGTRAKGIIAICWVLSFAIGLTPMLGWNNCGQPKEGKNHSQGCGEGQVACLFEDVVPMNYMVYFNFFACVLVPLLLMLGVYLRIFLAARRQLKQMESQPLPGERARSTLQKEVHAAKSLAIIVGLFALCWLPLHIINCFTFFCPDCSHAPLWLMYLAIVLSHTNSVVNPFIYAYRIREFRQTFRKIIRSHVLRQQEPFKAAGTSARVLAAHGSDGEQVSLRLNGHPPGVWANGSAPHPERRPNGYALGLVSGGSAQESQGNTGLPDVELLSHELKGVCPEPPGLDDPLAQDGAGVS
# note: exactly 200 nM is not below, so it is Not met; use Met for Ki strictly under it

Completed entries (count: 4):
# compound, target, cat
rows = [
    ("C#CCn1c(=O)c2c(nc(C#Cc3cccc(C)c3)n2C)n(CC)c1=O [drawing 566]", "A2A-adenosine receptor human recombinant (Homo sapiens)", "Met"),
    ("C#CCn1c(=O)c2c(nc(C#Cc3cccc(OC)c3)n2C)n(CC)c1=O [drawing 565]", "A2A-adenosine receptor human recombinant (Homo sapiens)", "Met"),
    ("C#CCn1c(=O)c2c(nc(C#Cc3cccc(OCCO)c3)n2C)n(C)c1=O [drawing 557]", "A2A-adenosine receptor human recombinant (Homo sapiens)", "Not met"),
    ("C#CCn1c(=O)c2c(nc(C#Cc3cccc(OC)c3)n2C)n(C)c1=O [drawing 553]", "A2A-adenosine receptor human recombinant (Homo sapiens)", "Not met"),
]

# check: Ki < 200 nM for C#CCn1c(=O)c2c(nc(C#Cc3cccc(OC)c3)n2C)n(CCO)c1=O [drawing 572]
Met

Taken from patent US20080221134A1.
